Measured TGI, listed per entry.
- System: OVCAR-3 ovarian
- protocol-notes: NCI tumour cell line growth inhibition, 48 h
The reply should contain only the number, in µM.

Cc1c(-c2c(C)c(=O)c3c(C(C)C)c(=O)c(=O)c(C=O)c-3c2=O)c(O)c2c(C=O)c(O)c(O)c(C(C)C)c2c1O = 7.02
CC(C)N(Cc1c(F)cccc1F)c1ccc(CO)c(Cl)c1 = 0.565
COc1ccc(OC)c2c1C=C[C@H](C1(C)SCCS1)C2C(C)=O (some centres not stated) = 61.5

Now take the following compound into account.
Query :: Any idea what TGI was measured for CC(C)C[C@@H](NC(=O)[C@@H](Cc1cccc2ccccc12)NC(=O)N1CCOCC1)B(O)O ?
Result :: 85.8

###

- System: OVCAR-3 ovarian
- protocol-notes: NCI tumour cell line growth inhibition, 48 h
Reported values of GI50 for individual entries

Examples with answers:
Nc1nc(/C=C\c2ccc([N+](=O)[O-])s2)nc(N2CCOCC2)n1 = 15.2 µM
COC(=O)c1c(C)c2n(c1C)C(=O)C(c1ccccc1)=C2 = 45.4 µM

Next:
Query :: For the compound shown here, O=C1CCC/C=C\C[C@H]2C=CC(=O)/C2=C/C[C@H](CCc2cccc(C(F)(F)F)c2)O1 , give the reported GI50.
Result :: 1.46 µM

###

As shown below, each of these molecules has a reported TGI value.
- System: SK-MEL-2 melanoma
- protocol-notes: NCI tumour cell line growth inhibition, 48 h

Field: example entries. Status: answers known.
N#CCCC1(CCC#N)CCCCCCC(CCC#N)(CCC#N)C(=O)C1=O = > 100 µM
CC1=NN(c2cccc(Cl)c2)C2(C1=Cc1ccccc1)C(Cl)C(=O)N2c1nc2ccccc2s1 (stereo not drawn) = 38.5 µM
NCCNC1=CC(=O)c2nc3ccccc3c3ccnc1c23 = 29.6 µM
C[C@@H](CC(O)C1OC1(C)C)[C@@H]1CC[C@]2(C)C3=CCC4C(C)(C)C(O)CC[C@]4(C)C3CCC12C (stereo partly drawn) = 57.4 µM
COc1ccc(C2Oc3ccc(Cl)cc3C=C2[N+](=O)[O-])cc1OC (stereo not drawn) = 3.05 µM

Next item in the queue.
Query :: I have this molecule here, C[C@@H](CO)C1=C(O)c2ccc3c(c2C(=O)C1=O)CCCC3(C)C , and I need its recorded TGI.
Result :: 84.7 µM

###

- Test system: OVCAR-4 ovarian
- protocol-notes: NCI tumour cell line growth inhibition, 48 h
Recorded measurements of TGI, one per entry

Illustrative cases are given below, each with its answer.
Cc1ccc(-c2nc3nc(-c4ccc(Br)cc4)nc(N4CCCNCC4)c3o2)cc1 = 21 µM
CCN(CC)CC1CCCCN1CC(=O)N1c2ccccc2NC(=O)c2ccccc21 (stereo not given) = > 100 µM
Cc1noc(C)c1-n1nc2ccc3nonc3c2n1 = > 100 µM

Query :: Which TGI is reported for this compound? Cc1ccc2cc3c(cc(C)c4ccccc43)c3c2c1CC3
Result :: > 100 µM

Query :: How about O=C(OCCO)C1CC2CC1C1(C2)OCCO1 (stereo not given) ?
Result :: > 100 µM

###

- System: EKVX NSCLC
- protocol-notes: NCI tumour cell line growth inhibition, 48 h
Reported TGI values follow for various compounds

Examples from the recorded data:
CC1CCC2(OC1)OC1CC3C4CCC5CC(O)CCC5(C)C4CC(=O)OC3(C)C1C2C (stereo unspecified) = > 100 µM
COc1ccc2c(c1)[n+](=O)c(C(=O)C/C(=N/NC(=O)c1ccccc1O)C(=O)Nc1ccc(Cl)c(C(F)(F)F)c1)c(C)n2[O-] = > 100 µM

Query :: // query TGI value for entry CC12CCCCC1C(=O)C2(Cl)Cl (stereo unspecified)
Result :: 11 µM

Query :: One more compound: CN(C)CCCN1N=Nc2cccc3cccc1c23
Result :: > 100 µM

Query :: Please do the same for Nc1nc2ccc(NCc3ccc(C(=O)NC(CCC(=O)O)C(=O)O)cc3)cc2c(=O)[nH]1 (stereo unspecified) as well.
Result :: > 100 µM

Query :: Same for O=[N+]([O-])c1ccc2sc(C=Nc3ccc(O)cc3)cc2c1
Result :: > 100 µM

Query :: // next record c1ccc2nc(-c3ccc4c(c3)OCO4)ccc2c1
Result :: > 100 µM

Query :: And for CCCCCC(/C=C/[C@@H]1[C@H]2CC(=O)O[C@H]2C[C@H]1N1CCOCC1)OC1CCCO1 (stereo partly specified) ?
Result :: > 100 µM

###

- Test system: SW-620 colon
- protocol-notes: NCI tumour cell line growth inhibition, 48 h
# maps each entry to its TGI

CCN(CC)c1ccc2cc3ccc(=[N+](CC)CC)cc-3oc2c1 = 1.43 µM
O=C1OC(c2ccccc2)=N/C1=C\c1ccc(Br)cc1 = > 100 µM
CC(=O)OCCn1c(Cc2ccc(C)cc2)nn(C(C)=O)c1=O = > 100 µM
COc1ccc(-c2nc(N3CCCC3)no2)cc1 = > 100 µM
C=C1C(=O)O[C@@H]2[C@@H]3O[C@@H](C[C@@H]13)[C@](C)(O)CC/C=C(\C)CCC[C@H]2C = 2.31 µM

Query :: Recall the recorded TGI for O=C1CSC(c2cccc(Cl)c2)N1c1ccc(-n2c(-c3ccccc3)nc3ccccc3c2=O)cc1 (stereo not given) with SW-620 colon and state it.
Result :: > 100 µM

Query :: Please give the result for COc1ccc(C(=O)c2cc(OC)c(OC)c(OC)c2)cc1OC(=O)C(Cl)(Cl)Cl too.
Result :: > 100 µM

###

- Test system: SF-295 CNS
- protocol-notes: NCI tumour cell line growth inhibition, 48 h
Where a SMILES comes first, the peptide text is derived from it. [ ]: non-standard residue; d: D form. The star is where a group is joined. ξ: configuration not given here. ξD = NC(CC(=O)O)C(=O)O; Boc = CC(C)(C)OC(=O)*; Aib = CC(C)(N)C(=O)O; OtBu = CC(C)(C)O*
metric: TGI

[N-]=[N+]=NCC1OC(n2cnc3c(N)ncnc32)C2OC12 (centres undefined) = > 100 µM
C[C@]12CC[C@H]3[C@@H](CCC4=C[C@@H](N5CCCC5)CC[C@@]43C)[C@@H]1C/C(=C\c1ccncc1)[C@@H]2O = 17.6 µM
C[C@@H](CO)C1=C(O)c2ccc3c(c2C(=O)C1=O)CCCC3(C)C = > 100 µM
O=C1CCCC/C1=C(\Br)I = 37.7 µM
COC(=O)C(C)(C)NC(=O)C(C)(C)NC(=O)C(CC(=O)OC(C)(C)C)NC(=O)OC(C)(C)C (centres undefined) (Boc-[ξD](OtBu)-[Aib]-[Aib]-OMe) = > 100 µM

Query :: Quick one: TGI of CCOC(=O)CCSS(=O)(=O)c1ccccc1 ?
Result :: > 100 µM

Query :: And then O=c1oc2c3ccc4ccccc4c3n(CCCN3CCCCC3)c2c2ccccc12 , what is it?
Result :: > 100 µM

Query :: Now consider Cc1ccc(S(=O)(=O)N(/N=C/C=C/c2ccccc2)c2nnc(-c3ccccc3)c(-c3ccccc3)n2)cc1 and answer again.
Result :: 64.3 µM

Query :: Another: O=C1OCC(C#Cc2ccccc2)=C1Br
Result :: 48.8 µM

###

This section presents compounds with their documented GI50 values.
- System: HS 578T breast
- protocol-notes: NCI tumour cell line growth inhibition, 48 h

Look over these answered cases.
N#Cc1cnc(=O)n(C2CC(O)C(CO)O2)c1 (stereo not drawn) = > 100000 nM
COc1ccc2c(c1)O/C(=C\c1ncc([N+](=O)[O-])n1C)C2=O = 641 nM

Query :: So what's the measured GI50 for this one? NC(=O)c1c(Br)n(C2OC(CO)C(O)C2O)c2ncnc(N)c12 (stereo not drawn)
Result :: 1480 nM

###

- System: U251 CNS
Hello, when you answer, please use one of the following outcomes: active, inactive

// known answers, use as guide
ClC(Cl)c1nc(-c2ccccc2)n2nc(-c3ccccc3)cc2n1 = inactive
CC(C)N(Cc1c(F)cccc1F)c1ccc(CO)c(Cl)c1 = active

Query :: GET /call?item= COc1ccc(C2=C(c3cn(C)c4ccccc34)C(=O)OC2)cc1OC returns the recorded outcome of this test.
Result :: inactive

Query :: Same question for COc1ccc2c(c1)O/C(=C\c1ncc([N+](=O)[O-])n1C)C2=O please.
Result :: inactive

Query :: Next: Nc1cc(N)c2nc(-c3ccccc3)c(NCCc3ccc(Cl)c(Cl)c3)nc2c1
Result :: inactive

Query :: Then what about the compound Cc1ccc(-c2nc3nc(-c4ccc(Br)cc4)nc(N4CCCNCC4)c3o2)cc1 ?
Result :: inactive

###

- System: HT29 colon
- protocol-notes: NCI tumour cell line growth inhibition, 48 h
metric: TGI (µM)
Output spec: scalar in µM, unitless text.

Here is how some compounds turned out for TGI.
c1ccc2nc(-c3ccc4c(c3)OCO4)ccc2c1 = 79.7
Cn1cc/c(=N\N=c2/ccn(C)c3ccccc23)c2ccccc21 = 31.7
CC(=O)OC(C)(C)C1O[C@@]23OC1C[C@@H](C)[C@@H]2[C@@]1(C)CC[C@@]24C[C@@]25CC[C@H](OC2OCC(O)C(O)C2O)C(C)(C)[C@@H]5CCC4[C@]1(C)[C@H]3O (some centres undefined) = 24.7
COc1ccc(Nc2nc3cc(C(F)(F)F)ccc3n3cccc23)cc1OC = 24.1
Cc1c(-c2c(C)c(=O)c3c(C(C)C)c(=O)c(=O)c(C=O)c-3c2=O)c(O)c2c(C=O)c(O)c(O)c(C(C)C)c2c1O = 4.87

Query :: Hi! What's the reported TGI for COc1cccc(/C=C2\COc3ccc(O)c(O)c3C2=O)c1 on HT29 colon?
Result :: 5.07
